- Test system: Fibroblast
- Protocol Description: Multiplex assay against human fibroblast
- Type: toxicity, cell-based
- Conditions: 48 h, 1 µM, compound concentration 1 uM, replicate 2
Outcome Measure: Population Fragmented Nuclei (%)
Report only the number, with the unit % understood.

O=C(Cc1ccc(-c2ccc(OCCN3CCOCC3)cc2)cn1)NCc1ccccc1 ... 35

# lookup: Population Fragmented Nuclei (%) of CCn1c(=O)c(-c2ccc(-c3cncs3)cc2Cl)cc2cnc(Nc3ccc(N4CCN(C)CC4)cc3)nc21
24

# lookup: Population Fragmented Nuclei (%) of O=C(Nc1ccc(-n2nc(-c3cccnc3)cc2C(F)(F)F)cn1)c1ccc(-c2ccccc2)c(F)c1
25

# lookup: Population Fragmented Nuclei (%) of CCc1cccc(CC)c1NC(=O)c1nn(C)c2c1CCc1cnc(Nc3ccc(C(=O)NC4CCN(C)CC4)cc3OC(F)(F)F)nc1-2
38

---

- System: Fibroblast
- Protocol Description: Multiplex assay against human fibroblast
- Format: toxicity, cell-based
- Conditions: 24 h, 10 µM, compound concentration 10 uM, replicate 1
Just a reminder that ties go to class 0: only Population Healthy Nuclei (%) strictly below 50% counts as class 1.

Does the reported Population Healthy Nuclei (%) of the following compound sit strictly below 50%? COc1ccc(-c2ccc3c(N4CCOCC4)nc(N4C[C@@H](C)O[C@@H](C)C4)nc3n2)cc1CO
class 1

Does the reported Population Healthy Nuclei (%) of the following compound sit strictly below 50%? Cc1cn(-c2cc(NC(=O)c3ccc(C)c(Nc4nccc(-c5cccnc5)n4)c3)cc(C(F)(F)F)c2)cn1
class 1

Does the reported Population Healthy Nuclei (%) of the following compound sit strictly below 50%? O=C1N/C(=N/c2ccccc2F)S/C1=C\c1ccc(C(=O)O)cc1
class 0

---

Measured Population Normal (%), listed per entry.
- System: Fibroblast
- Protocol Description: Multiplex assay against human fibroblast
- Format: toxicity, cell-based
- Conditions: 48 h, 1 µM, compound concentration 1 uM, replicate 1
Write the quantity with the unit trailing the number.

Would you please look over these solved cases?
CCCn1c(=O)c2[nH]c(-c3cnn(Cc4cccc(C(F)(F)F)c4)c3)nc2n(CC)c1=O [GS 6201] ... 79%
CCn1c(=O)c(-c2ccc(-c3cncs3)cc2Cl)cc2cnc(Nc3ccc(N4CCN(C)CC4)cc3)nc21 ... 89%
CCOc1cc(C(=O)N2CCC(N3CCN(C)CC3)CC2)ccc1Nc1ncc2c(n1)N(C1CCCC1)c1ccccc1C(=O)N2C ... 84%

Then this molecule:
# lookup: Population Normal (%) of O=C(Nc1ccc(-n2nc(-c3cccnc3)cc2C(F)(F)F)cn1)c1ccc(-c2ccccc2)c(F)c1 [BI 2049]
90%

---

- Test system: Fibroblast
- Protocol Description: Multiplex assay against human fibroblast
- Assay type: toxicity, cell-based
- Conditions: 24 h, 1 µM, compound concentration 1 uM, replicate 1
Measured Population Apoptotic (%), listed per entry.
Write the quantity with the unit trailing the number.

CCCS(=O)(=O)Nc1ccc(F)c(C(=O)c2c[nH]c3ncc(Cl)cc23)c1F ... 53%

Notebook: pull reported Population Apoptotic (%) for Fibroblast, entry CCN1CCN(c2ccc(Nc3cc(N(C)C(=O)Nc4c(Cl)c(OC)cc(OC)c4Cl)ncn3)cc2)CC1
60%

Notebook: pull reported Population Apoptotic (%) for Fibroblast, entry CCOc1cc2ncc(C#N)c(Nc3ccc(OCc4ccccn4)c(Cl)c3)c2cc1NC(=O)/C=C/CN(C)C
64%

Notebook: pull reported Population Apoptotic (%) for Fibroblast, entry CCCn1c(=O)c2[nH]c(-c3cnn(Cc4cccc(C(F)(F)F)c4)c3)nc2n(CC)c1=O
70%

Notebook: pull reported Population Apoptotic (%) for Fibroblast, entry Cc1ccc(C(=O)Nc2cccc(C(F)(F)F)c2)cc1Nc1nc(-c2cccnc2)nc2c1cnn2C
66%

---

- System: Fibroblast
- Protocol Description: Multiplex assay against human fibroblast
- Type: toxicity, cell-based
- Conditions: 24 h, 1 µM, compound concentration 1 uM, replicate 2
Measured Population Mitotic Cells (%), listed per entry.
Report only the number, with the unit % understood.

COc1cccc2cc(-c3nc([C@H]4CC[C@H](C(=O)O)CC4)n4ncnc(N)c34)[nH]c12 ... 83
CCc1cccc(CC)c1NC(=O)c1nn(C)c2c1CCc1cnc(Nc3ccc(C(=O)NC4CCN(C)CC4)cc3OC(F)(F)F)nc1-2 ... 62
CCOC(=O)c1c(C)[nH]c2ccc3c(c12)CN1CCc2cc(OC)ccc2C1O3 (centres undefined) ... 91

Then this compound:
# lookup: Population Mitotic Cells (%) of Cc1ccc2nc(NCCN)c3ncc(C)n3c2c1.O=C(O)C(F)(F)F.O=C(O)C(F)(F)F
33

---

- Tested on: U2OS
- Protocol Description: Multiplex assay against U2OS
- Format: toxicity, cell-based
- Conditions: human, 12 h, 1 µM, compound concentration 1 uM, replicate 2
Outcome Measure: Population Mitotic Cells (%)
Report only the number, with the unit % understood.

Would you please look over these solved cases?
CCCS(=O)(=O)Nc1ccc(F)c(C(=O)c2c[nH]c3ncc(Cl)cc23)c1F ... 66
CN[C@@H]1C[C@H]2O[C@@](C)([C@@H]1OC)n1c3ccccc3c3c4c(c5c6ccccc6n2c5c31)C(=O)NC4 ... 37
COc1cccc2cc(-c3nc([C@H]4CC[C@H](C(=O)O)CC4)n4ncnc(N)c34)[nH]c12 ... 66

# lookup: Population Mitotic Cells (%) of Cc1ccc2nc(NCCN)c3ncc(C)n3c2c1.O=C(O)C(F)(F)F.O=C(O)C(F)(F)F
95

# lookup: Population Mitotic Cells (%) of Cl.Oc1ccc2c3c1O[C@H]1c4[nH]c5c(c4C[C@@]4(O)[C@@H](C2)N(CC2CC2)CC[C@]314)C[C@@]1(O)[C@H]2Cc3ccc(O)c4c3[C@@]1(CCN2CC1CC1)[C@H]5O4
57

# lookup: Population Mitotic Cells (%) of C=C1/C(=C\C=C2/CCC[C@]3(C)[C@@H]([C@H](C)/C=C/[C@H](C)C(C)C)CC[C@@H]23)C[C@@H](O)C[C@@H]1O
60

# lookup: Population Mitotic Cells (%) of O=C(Nc1ccc(-c2ccnc(Nc3ccc(N4CCOCC4)cc3)n2)cc1)[C@@H]1CCCN1
66

---

- Test system: HEK-293T
- Protocol Description: Multiplex assay against HEK293T
- Type: toxicity, cell-based
- Conditions: human, 12 h, 1 µM, compound concentration 1 uM, replicate 1
Outcome Measure: Population Mitotic Cells (%)
Report only the number, with the unit % understood.

Would you please look over these solved cases?
CCOc1cc2ncc(C#N)c(Nc3ccc(OCc4ccccn4)c(Cl)c3)c2cc1NC(=O)/C=C/CN(C)C ... 50
CN1C2CCC1CC(OC(c1ccc(F)cc1)c1ccc(F)cc1)C2.Cl (stereo not drawn) ... 50
S=C(NCCCc1c[nH]cn1)NCCCN(Cc1ccc(Cl)c(Cl)c1)c1ccc(Br)cn1 ... 52
O=C(Nc1ccc(Cl)cc1)Nc1cccc(-c2cccc(N3CCCC3)n2)c1 ... 48
COc1cc2ncnc(Nc3ccc(F)c(Cl)c3)c2cc1NC(=O)/C=C/CN1CCCCC1 [DACOMITINIB ANHYDROUS] ... 65

# lookup: Population Mitotic Cells (%) of O=C1NC(=O)C(c2cnc3ccccn23)=C1c1cn2c3c(cc(F)cc13)CN(C(=O)N1CCCCC1)CC2
53

# lookup: Population Mitotic Cells (%) of CCn1cc(-c2ccnc3[nH]c(-c4cccc(CN(C)C)c4)cc23)c(-c2ccc(NC(=O)N(C)C)cc2)n1
82

# lookup: Population Mitotic Cells (%) of NC(=O)c1cccc(-c2cc(Nc3ccc(OC(F)(F)F)cc3)ncn2)c1
76

# lookup: Population Mitotic Cells (%) of Cc1cn(-c2cc(NC(=O)c3ccc(C)c(Nc4nccc(-c5cccnc5)n4)c3)cc(C(F)(F)F)c2)cn1
34

# lookup: Population Mitotic Cells (%) of CNc1cc(Oc2cc(C(=O)Nc3cc(N4CCN(C)CC4)cc(C(F)(F)F)c3)ccc2C)ncn1
20

# lookup: Population Mitotic Cells (%) of O=C(Cc1ccc(-c2ccc(OCCN3CCOCC3)cc2)cn1)NCc1ccccc1
65

# lookup: Population Mitotic Cells (%) of CNC(=O)c1ccc(Nc2nc(OC3CCCC3)c3c(-c4ccc5nc(C)oc5c4)c[nH]c3n2)c(OC)c1
63

# lookup: Population Mitotic Cells (%) of CCCS(=O)(=O)c1nc(NC2CC2)cc(-c2ccc3c(ccn3C3CC(C)(C)NC(C)(C)C3)c2)n1
41

# lookup: Population Mitotic Cells (%) of C=CCn1c(=O)c2cnc(Nc3ccc(N4CCN(C)CC4)cc3)nc2n1-c1cccc(C(C)(C)O)n1
83

# lookup: Population Mitotic Cells (%) of O=C(Nc1ccc(-c2ccnc(Nc3ccc(N4CCOCC4)cc3)n2)cc1)[C@@H]1CCCN1
53

# lookup: Population Mitotic Cells (%) of CCn1c(=O)c(-c2ccc(-c3cncs3)cc2Cl)cc2cnc(Nc3ccc(N4CCN(C)CC4)cc3)nc21
65

This collection of values is drawn from ChEMBL document CHEMBL4689842.
